- Target Under Test: rhodesain (Trypanosoma brucei rhodesiense, UniProt Q95PM0)
- Construct: TEV cleavage site (C); GFP (C); hexahistidine-tag (6xHis) (C)
- Sequence (Q95PM0 entry or part of it): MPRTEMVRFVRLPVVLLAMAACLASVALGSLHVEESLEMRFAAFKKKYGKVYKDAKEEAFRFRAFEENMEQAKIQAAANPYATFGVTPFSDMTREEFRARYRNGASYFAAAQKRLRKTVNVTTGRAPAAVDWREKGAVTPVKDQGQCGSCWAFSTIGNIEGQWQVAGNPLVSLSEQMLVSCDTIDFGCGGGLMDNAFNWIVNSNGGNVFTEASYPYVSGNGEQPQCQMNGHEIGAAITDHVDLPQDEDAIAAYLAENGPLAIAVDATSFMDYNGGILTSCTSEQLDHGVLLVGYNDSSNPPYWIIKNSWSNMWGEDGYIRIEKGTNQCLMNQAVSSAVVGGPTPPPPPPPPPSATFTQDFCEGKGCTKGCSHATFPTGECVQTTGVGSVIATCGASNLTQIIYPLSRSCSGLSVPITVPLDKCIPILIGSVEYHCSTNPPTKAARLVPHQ
- Assay Notes: Rhodesain inhibition, Tian continuous fluorogenic assay (Cbz-Phe-Arg-AMC)

# Compound, IC50 (nM)
measured = [
    ("N#C[C@H](CCc1ccccc1)NC(=O)[C@H](Cc1ccccc1)NC(=O)c1cc(F)cc(F)c1 [CD34]", 350),
]

----------
- Target Under Test: rhodesain (Trypanosoma brucei rhodesiense, UniProt Q95PM0)
- Construct: TEV cleavage site (C); GFP (C); hexahistidine-tag (6xHis) (C); made in house
- Assay Notes: Rhodesain inhibition, Tian continuous fluorogenic assay (Cbz-Phe-Arg-AMC)
- Format: biochemical

# Smiles String, Ki (nM)
measured = [
    ("N#C[C@H](CCc1ccccc1)NC(=O)[C@H](Cc1ccccc1)NC(=O)c1cc(F)cc(F)c1", 27),
]
